Quick reference for IC50 among some molecules
# measuredOn: full-length beta-Catenin (Uniprot ID P35222) (Homo sapiens, UniProt P35222)
# Construct: 10 nM full-length beta-Catenin (Uniprot ID P35222)
# Sequence (P35222 1-781): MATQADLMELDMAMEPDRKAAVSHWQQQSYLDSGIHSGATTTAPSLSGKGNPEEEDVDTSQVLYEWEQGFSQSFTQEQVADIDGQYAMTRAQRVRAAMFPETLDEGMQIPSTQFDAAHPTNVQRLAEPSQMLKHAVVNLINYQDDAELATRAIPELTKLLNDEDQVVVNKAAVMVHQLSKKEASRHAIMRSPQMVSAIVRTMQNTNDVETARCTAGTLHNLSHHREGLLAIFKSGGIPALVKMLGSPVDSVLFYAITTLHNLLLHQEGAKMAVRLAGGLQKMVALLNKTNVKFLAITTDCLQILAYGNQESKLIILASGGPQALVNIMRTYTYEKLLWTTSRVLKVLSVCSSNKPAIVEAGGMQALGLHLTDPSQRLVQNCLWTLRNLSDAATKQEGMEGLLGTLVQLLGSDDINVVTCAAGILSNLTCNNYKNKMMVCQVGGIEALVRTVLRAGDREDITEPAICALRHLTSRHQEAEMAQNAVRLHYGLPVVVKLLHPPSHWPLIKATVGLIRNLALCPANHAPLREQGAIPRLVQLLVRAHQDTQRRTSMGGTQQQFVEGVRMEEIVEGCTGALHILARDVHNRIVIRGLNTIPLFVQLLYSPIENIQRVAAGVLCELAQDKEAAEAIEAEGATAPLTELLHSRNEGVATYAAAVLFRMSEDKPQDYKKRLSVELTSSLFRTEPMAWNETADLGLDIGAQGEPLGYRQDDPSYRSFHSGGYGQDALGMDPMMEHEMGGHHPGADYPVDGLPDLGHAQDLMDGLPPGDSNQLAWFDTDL
# assayComment: Fluorescence polarization IC50 (beta-catenin / 5FAM-TCF4 10-53 competition)
# Format: binding
# condition: fluorescence polarization; read-out: beta-Catenin FP IC50
# value in nM; strip the unit string

Sample answers from the record:
1) CC(=O)N1CCC[C@]12CC=CCCCC1(CCCC=CCCCCOC(=O)N3CCC(C(=O)N[C@@H](Cc4ccccc4C(F)(F)F)C(=O)N[C@@H](Cc4csc5ccccc45)C(=O)N[C@@H](C)C(N)=O)(CC3)NC(=O)[C@H](CC(C)C)NC(=O)[C@H](Cc3ccccc3)NC(=O)[C@H](C)NC(=O)[C@H](CCC(N)=O)NC(=O)[C@H](Cc3cccc(C(=O)O)c3)NC(=O)[C@H](CC(=O)O)NC1=O)NC(=O)[C@H](CC(C)(C)C)NC(=O)[C@H](CC(=O)O)NC2=O (stereo partly drawn) ... 273
2) CCCC[C@@H]1NC(=O)[C@H](CC(=O)O)NC(=O)[C@]2(CC=CCCCC3(CCCC=CCCCOC(=O)N4CC[C@@](C(=O)N[C@@H](Cc5ccccc5Cl)C(=O)N[C@@H](Cc5csc6ccccc56)C(=O)N[C@@H](CC(C)C)C(N)=O)(C4)NC(=O)[C@H](CC(C)C)NC(=O)[C@H](Cc4ccccc4)NC(=O)[C@H](C)NC(=O)[C@H](C)NC(=O)[C@H](CC(=O)O)NC(=O)[C@H](CC(=O)O)NC3=O)NC1=O)CCCN2C(C)=O (stereo partly drawn) [I-1420] ... 124

Switching to the query record.
Ask: Would you kindly share the measured IC50 for CC(=O)N1CCC[C@]12CC=CCCCC1(CCCC=CCCCOC(=O)N3CC[C@@](C(=O)N[C@@H](Cc4ccsc4)C(=O)N[C@@H](Cc4csc5ccccc45)C(=O)N[C@@H](CCC(N)=O)C(N)=O)(C3)NC(=O)[C@H](CC(C)C)NC(=O)[C@H](Cc3ccccc3)NC(=O)[C@H](C)NC(=O)[C@H](C)NC(=O)[C@H](CC(=O)O)NC(=O)[C@H](CC(N)=O)NC1=O)NC(=O)[C@H](CC(C)(C)C)NC(=O)[C@H](CC(=O)O)NC2=O (stereo partly drawn) ?
Reply: 40
